# Target desc: T1, yedK S84A (Escherichia coli (gene from BL21 …, UniProt P76318 2-222, S84A))
# T1 sequence: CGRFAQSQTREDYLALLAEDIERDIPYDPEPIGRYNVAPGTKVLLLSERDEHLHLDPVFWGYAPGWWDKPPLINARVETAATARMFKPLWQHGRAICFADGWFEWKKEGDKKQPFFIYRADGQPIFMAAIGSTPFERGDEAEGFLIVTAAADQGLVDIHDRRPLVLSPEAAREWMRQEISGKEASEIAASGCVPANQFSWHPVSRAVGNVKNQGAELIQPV
# Assay notes: ITC
Measured parameter: pKd
pKd is a log-scale quantity: -log10 of the concentration expressed in molar.

Which pKd reading was recorded for the binder CGGTCGATTC (ssDNA) [ssDNA] ?
4.97
